Target: Human GPR120 (Homo sapiens, UniProt Q5NUL3)
Construct: Ga16 (promiscuous G protein) fusion partner; expressed in transfected cells
Sequence (Q5NUL3 with tags, fused parts or gaps): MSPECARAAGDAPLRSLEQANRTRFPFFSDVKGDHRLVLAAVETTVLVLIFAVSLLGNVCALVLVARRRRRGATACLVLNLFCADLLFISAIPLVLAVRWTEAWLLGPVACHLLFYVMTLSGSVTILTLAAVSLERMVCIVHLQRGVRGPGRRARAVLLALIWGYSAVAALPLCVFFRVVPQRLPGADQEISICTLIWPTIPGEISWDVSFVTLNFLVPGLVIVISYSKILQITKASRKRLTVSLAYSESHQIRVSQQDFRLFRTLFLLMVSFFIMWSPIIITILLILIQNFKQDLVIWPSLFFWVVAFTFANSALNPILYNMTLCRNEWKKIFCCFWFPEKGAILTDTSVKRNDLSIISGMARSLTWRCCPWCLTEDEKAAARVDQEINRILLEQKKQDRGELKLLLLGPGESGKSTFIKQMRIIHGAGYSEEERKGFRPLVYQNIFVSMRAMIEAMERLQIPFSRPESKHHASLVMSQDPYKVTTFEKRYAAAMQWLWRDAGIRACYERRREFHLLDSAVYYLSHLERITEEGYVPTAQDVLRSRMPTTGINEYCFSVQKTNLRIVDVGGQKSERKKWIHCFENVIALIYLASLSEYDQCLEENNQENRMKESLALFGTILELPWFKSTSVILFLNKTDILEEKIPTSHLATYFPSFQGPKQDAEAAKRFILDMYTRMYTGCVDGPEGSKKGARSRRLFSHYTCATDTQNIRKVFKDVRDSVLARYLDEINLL
Assay: FLIPR assay: agonist-induced calcium mobilization in HEK293-GPR120-Ga16 cells
Type: cell-based
Details: GPR120 activation, calcium mobilization, HEK293-GPR120-Ga16 cells; read-out: EC50 Range
Attribute: EC50
Assay Readout: EC50

> print(dat)
                                    compound                         target.under.test            value
 1  O=C(O)c1cccc(-n2cc(-c3ccc(Cl)cc3)nn2)c1 [Compound 59]  Human GPR120 (Homo sapiens, UniProt Q5NUL3)  1000 to 5000 nM
 2  CCn1c(-c2cccc(OC(F)(F)F)c2)cs/c1=N\c1ccc(C(=O)O)cc1 [Compound 13]  Human GPR120 (Homo sapiens, UniProt Q5NUL3)   500 to 1000 nM
 3  CCn1c(-c2cccc(C#N)c2)cs/c1=N\c1ccc(S(=O)(=O)O)cc1 [Compound 1]  Human GPR120 (Homo sapiens, UniProt Q5NUL3)   500 to 1000 nM
 4  CCn1c(-c2cc(Cl)ccc2Cl)cs/c1=N\c1ccc(S(=O)(=O)O)cc1 [Compound 7]  Human GPR120 (Homo sapiens, UniProt Q5NUL3)    100 to 250 nM
 5  CCc1ccc(-c2cn(-c3cc(OC)cc(C(=O)O)c3)nn2)cc1 [Compound 65]  Human GPR120 (Homo sapiens, UniProt Q5NUL3)  1000 to 5000 nM
 6  COc1ccc(-n2cc(-c3cccc(C(=O)O)c3)nn2)cc1 [Compound 54]  Human GPR120 (Homo sapiens, UniProt Q5NUL3)  1000 to 5000 nM
 7  CCn1c(-c2cccc(OCc3ccccn3)c2)cs/c1=N\c1ccc(C(=O)O)cc1 [Compound 27]  Human GPR120 (Homo sapiens, UniProt Q5NUL3)   500 to 1000 nM
 8  Cc1ccc(-n2cc(-c3cccc(C(=O)O)c3)nn2)c(F)c1 [Compound 67]  Human GPR120 (Homo sapiens, UniProt Q5NUL3)    100 to 250 nM
 9  CCn1c(-c2ccccc2OC)cs/c1=N\c1ccc(C(=O)O)cc1 [Compound 32]  Human GPR120 (Homo sapiens, UniProt Q5NUL3)   500 to 1000 nM
10  CCCn1c(-c2ccccc2)cs/c1=N\c1ccc(C(=O)O)cc1 [Compound 16]  Human GPR120 (Homo sapiens, UniProt Q5NUL3)    250 to 500 nM
11  CCn1c(-c2cccc(O)c2)cs/c1=N\c1ccc(C(=O)O)cc1 [Compound 18]  Human GPR120 (Homo sapiens, UniProt Q5NUL3)    250 to 500 nM
12  CCn1c(-c2cccc(Cl)c2)cs/c1=N\c1ccc(C(=O)O)cc1 [Compound 35]  Human GPR120 (Homo sapiens, UniProt Q5NUL3)    100 to 250 nM
13  CCn1c(-c2cccc(Br)c2)cs/c1=N\c1ccc(C(=O)O)cc1 [Compound 47]  Human GPR120 (Homo sapiens, UniProt Q5NUL3)    100 to 250 nM
14  O=C(O)c1cccc(-n2cc(-c3ccccc3F)nn2)c1 [Compound 60]  Human GPR120 (Homo sapiens, UniProt Q5NUL3)  1000 to 5000 nM
15  CCn1c(-c2cccc3ccccc23)cs/c1=N\c1ccc(C(=O)O)cc1 [Compound 40]  Human GPR120 (Homo sapiens, UniProt Q5NUL3)    250 to 500 nM
16  COc1ccc(-c2noc(-c3cccc(C(=O)O)c3)n2)cc1 [Compound 51]  Human GPR120 (Homo sapiens, UniProt Q5NUL3)    100 to 250 nM
17  CCn1c(-c2ccccc2Br)cs/c1=N\c1ccc(C(=O)O)cc1 [Compound 42]  Human GPR120 (Homo sapiens, UniProt Q5NUL3)      1 to 100 nM
18  CCn1c(-c2ccccc2N(C)C)cs/c1=N\c1ccc(C(=O)O)cc1 [Compound 46]  Human GPR120 (Homo sapiens, UniProt Q5NUL3)   500 to 1000 nM
19  Cc1ccc(-c2cn(-c3cccc(C(=O)O)c3)nn2)cc1 [Compound 57]  Human GPR120 (Homo sapiens, UniProt Q5NUL3)  1000 to 5000 nM
20  CCc1ccc(-c2cn(-c3ccc(F)c(C(=O)O)c3)nn2)cc1 [Compound 69]  Human GPR120 (Homo sapiens, UniProt Q5NUL3)  1000 to 5000 nM
21  CCn1c(-c2ccccc2OC(F)(F)F)cs/c1=N\c1ccc(S(=O)(=O)O)cc1 [Compound 6]  Human GPR120 (Homo sapiens, UniProt Q5NUL3)   500 to 1000 nM
22  CCc1ccc(-c2cn(-c3cc(C(=O)O)ccc3F)nn2)cc1 [Compound 70]  Human GPR120 (Homo sapiens, UniProt Q5NUL3)  1000 to 5000 nM
23  CCn1c(-c2ccccc2OC)cs/c1=N\c1ccc(S(=O)(=O)O)cc1 [Compound 28]  Human GPR120 (Homo sapiens, UniProt Q5NUL3)    100 to 250 nM
24  CCn1c(-c2cccc(OC)c2)cs/c1=N\c1ccc(C(=O)O)cc1 [Compound 33]  Human GPR120 (Homo sapiens, UniProt Q5NUL3)   500 to 1000 nM
25  CCn1c(-c2ccccc2N)cs/c1=N\c1ccc(C(=O)O)cc1 [Compound 43]  Human GPR120 (Homo sapiens, UniProt Q5NUL3)      1 to 100 nM
26  O=C(O)c1cccc(-n2cc(-c3ccc(C(F)(F)F)cc3)nn2)c1 [Compound 58]  Human GPR120 (Homo sapiens, UniProt Q5NUL3)  1000 to 5000 nM
27  CCc1ccc(-c2cn(-c3cc(F)cc(C(=O)O)c3)nn2)cc1 [Compound 66]  Human GPR120 (Homo sapiens, UniProt Q5NUL3)   500 to 1000 nM
28  CCn1c(-c2cc(O)ccc2Br)cs/c1=N\c1ccc(C(=O)O)cc1 [Compound 19]  Human GPR120 (Homo sapiens, UniProt Q5NUL3)   500 to 1000 nM
29  CCn1c(-c2cc(C(F)(F)F)cc(C(F)(F)F)c2)cs/c1=N\c1ccc(S(=O)(=O)O)cc1 [Compound 2]  Human GPR120 (Homo sapiens, UniProt Q5NUL3)    250 to 500 nM
